System: nitrosoamine-induced pancreatic cancer
experiment summary: laser irradiation to the extirpated organ (excited fluorescent spectrum, N2-PLS measurement), tumor to tissue ratio
Assay type: in vivo, Golden hamsters
condition parameters: i.v. 25 mg/kg bodyweight, organs extirpated at 24 hours after administration
endpoint: tumor/tissue cancer/ liver

>  <compound>
CCCCCCCCCCCCOC(C)C1=C(C)c2cc3[nH]c(cc4nc(cc5[nH]c(cc1n2)c(C)c5C(C)OCCCCCCCCCCCC)C(C)=C4CCC(=O)NC(CC(=O)O)C(=O)O)c(CCC(=O)NC(CC(=O)O)C(=O)O)c3C.[Ga] (stereo not shown)

>  <test target>
nitrosoamine-induced pancreatic cancer

>  <tumor/tissue cancer/ liver>
4.38

$$$$
>  <compound>
CCCOC(C)C1=C(C)C2=Cc3c(C(C)OCCC)c(C)c4[n]3[Ga][n]3c(c(C)c(CCC(=O)NC(CC(=O)O)C(=O)O)c3=CC3=NC(=C4)C(C)=C3CCC(=O)NC(CC(=O)O)C(=O)O)=CC1=N2 (stereo not shown)

>  <test target>
nitrosoamine-induced pancreatic cancer

>  <tumor/tissue cancer/ liver>
2.95

$$$$
>  <compound>
CCCCCCCOC(C)C1=C(C)C2=Cc3c(C(C)OCCCCCCC)c(C)c4[n]3[Ga][n]3c(c(C)c(CCC(=O)NC(CC(=O)O)C(=O)O)c3=CC3=NC(=C4)C(C)=C3CCC(=O)NC(CC(=O)O)C(=O)O)=CC1=N2 (stereo not shown)

>  <test target>
nitrosoamine-induced pancreatic cancer

>  <tumor/tissue cancer/ liver>
2.96

$$$$

Inquiry: For the compound CCCCCCCCCCOC(C)C1=C(C)c2cc3[nH]c(cc4nc(cc5[nH]c(cc1n2)c(C)c5C(C)OCCCCCCCCCC)C(C)=C4CCC(=O)NC(CC(=O)O)C(=O)O)c(CCC(=O)NC(CC(=O)O)C(=O)O)c3C.[Ga] (stereo not shown) , what tumor/tissue cancer/ liver is on record?
Reply text: 11.54

###

System: nitrosoamine-induced pancreatic cancer
experiment summary: in vivo hemorrhagic necrosis effect
Parameters: species or system hamsters; key: four scales of G4, G3, G2 and G1; four scales of G4, G3, G2 and G1; four scales of G4, G3, G2 and G1; four scales of G4, G3, G2 and G1
condition parameters: intensity of hemorrhagic necrosis at 24 hours following i.v. administration, and pathological study
endpoint: Hemorrhagic necrosis effect

Recorded results for 7 compounds are shown here.
>  <compound>
CCCCOC(C)C1=C(C)C2=Cc3c(C(C)OCCCC)c(C)c4[n]3[Ga][n]3c(c(C)c(CCC(=O)NC(CC(=O)O)C(=O)O)c3=CC3=NC(=C4)C(C)=C3CCC(=O)NC(CC(=O)O)C(=O)O)=CC1=N2 (centres unmarked) [(8) C4-Ga-DP-diAsp]

>  <endpoint>
Hemorrhagic necrosis effect

>  <result>
G4

$$$$
>  <compound>
CCCOC(C)C1=C(C)C2=Cc3c(C(C)OCCC)c(C)c4[n]3[Ga][n]3c(c(C)c(CCC(=O)NC(CC(=O)O)C(=O)O)c3=CC3=NC(=C4)C(C)=C3CCC(=O)NC(CC(=O)O)C(=O)O)=CC1=N2 (centres unmarked) [(6) C3-Ga-DP-diAsp]

>  <endpoint>
Hemorrhagic necrosis effect

>  <result>
G2

$$$$
>  <compound>
C=CC1=C(C)C2=Cc3c(C(C)OCCC(C)CCCC(C)C)c(C)c4[n]3[Mn][n]3c(c(C)c(CCC(=O)NC(CC(=O)O)C(=O)O)c3=CC3=NC(=C4)C(C)=C3CCC(=O)NC(CC(=O)O)C(=O)O)=CC1=N2 (centres unmarked) [(45) C10(H2Citro,mono)-Mn-DP-diAsp]

>  <endpoint>
Hemorrhagic necrosis effect

>  <result>
G2

$$$$
>  <compound>
CC1=C(CCC(=O)NC(CC(=O)O)C(=O)O)C2=NC1=Cc1c(C)c(C(C)OCCc3ccccc3)c3[n]1[Ga][n]1c(c(C)c(CCC(=O)NC(CC(=O)O)C(=O)O)c1=C2)=CC1=NC(=C3)C(C)=C1C(C)OCCc1ccccc1 (centres unmarked) [(14) C8(Phenethyl)-Ga-DP-diAsp]

>  <endpoint>
Hemorrhagic necrosis effect

>  <result>
G1

$$$$
>  <compound>
CCCCCCCCCCOC(C)C1=C(C)C2=Cc3c(C(C)OCCCCCCCCCC)c(C)c4[n]3[Mn][n]3c(c(C)c(CCC(=O)NC(Cc5ccccc5)C(=O)NC(CC(=O)O)C(=O)O)c3=CC3=NC(=C4)C(C)=C3CCC(=O)NC(Cc3ccccc3)C(=O)NC(CC(=O)O)C(=O)O)=CC1=N2 (centres unmarked) [(41) C10-Mn-DP-diPhe-diAsp]

>  <endpoint>
Hemorrhagic necrosis effect

>  <result>
G2

$$$$
>  <compound>
CC1=C(CCC(=O)NC(CC(=O)O)C(=O)O)C2=NC1=Cc1c(C)c(C(C)OCc3cccnc3)c3[n]1[Mn][n]1c(c(C)c(CCC(=O)NC(CC(=O)O)C(=O)O)c1=C2)=CC1=NC(=C3)C(C)=C1C(C)OCc1cccnc1 (centres unmarked) [(57) Nct-Mn-DP-diAsp]

>  <endpoint>
Hemorrhagic necrosis effect

>  <result>
G2

$$$$
>  <compound>
CCCCCCCCCCOC(C)C1=C(C)c2cc3[nH]c(cc4nc(cc5[nH]c(cc1n2)c(C)c5C(C)OCCCCCCCCCC)C(C)=C4CCC(=O)NC(CC(=O)O)C(=O)O)c(CCC(=O)NC(CC(=O)O)C(=O)O)c3C.[Ga] (centres unmarked) [(16) C10-Ga-DP-diAsp]

>  <endpoint>
Hemorrhagic necrosis effect

>  <result>
G2

$$$$

As a next step, examine the compound that follows.
Inquiry: Enter reported Hemorrhagic necrosis effect observed with nitrosoamine-induced pancreatic cancer for CCCCCOC(C)C1=C(C)C2=Cc3c(C(C)OCCCCC)c(C)c4[n]3[Ga][n]3c(c(C)c(CCC(=O)NC(CC(=O)O)C(=O)O)c3=CC3=NC(=C4)C(C)=C3CCC(=O)NC(CC(=O)O)C(=O)O)=CC1=N2 (centres unmarked) [(9) C5-Ga-DP-diAsp]
Reply text: G4
